Molecular target: one or more of HDAC-4, HDAC-5, HDAC-6, HDAC-7, HDAC-8, HDAC-9, HDAC-10 and HDAC-11
Assay: Inhibition of histone deacetylase enzymatic activity (summary statement over isoforms)
Conditions: Table 3, selected examples; HDAC isoform not given
Protocol: The following protocol is used to assay the compounds of the invention. The mixture is pre-incubated for 5 minutes at room temperature. The reaction is started by bringing the temperature to 37° C. and adding 15 μL substrate. Total reaction volume is 50 μL. A 30 mM stock of Boc-Lys(trifluoroacetyl)-AMC substrate is prepared in DMSO. […] Reaction is started by adding 18 μL Boc-Lys(trifluoroacetyl)-AMC substrate and incubating at 37° C. for 20-30 minutes. […]
pIC50: −log10 of the molar value.
Would you mind telling me the reported pIC50 of each entry?

Note down pIC50 recorded for O=C(NO)C(c1ccccc1)C1CCN(c2ncccn2)CC1 (stereo not shown)
4.82 to 6.00

Return the recorded pIC50 value; entry: CC(C)=CCOc1cccc(C(C(=O)NO)c2ccccc2)c1 (stereo not shown)
> 6.00

Give the value of pIC50 reported for the following: O=C(NO)C(c1ccccc1)c1ccc(-c2ccc3c(c2)CCO3)cc1 (stereo not shown)
> 6.00

Assign pIC50 to the following record: CC(C)CC(=O)Nc1cccc(C(C(=O)NO)c2ccccc2)c1 (stereo not shown)
4.82 to 6.00

Answer with reported pIC50 of O=C(NO)C(c1ccccc1)c1cccc(N2CCN(c3ccc(F)cc3)CC2)c1 (stereo not shown)
4.82 to 6.00

Read off the recorded pIC50 for CN(C)c1ccc(C(C(=O)NO)c2ccccc2)cc1 (stereo not shown)
> 6.00

Please list pIC50 recorded for the compound COCCOc1cccc(C(C(=O)NO)c2ccccc2)c1 (stereo not shown)
4.82 to 6.00

Give the reported value of pIC50 for this record: O=C(NO)C(Oc1ccc2c(c1)CCCC2)c1ccccc1 (stereo not shown)
4.82 to 6.00

Report measured pIC50; entry is Cc1[nH]c2ccccc2c1CN1CCC(Oc2ccc(C(C(=O)NO)c3ccccc3)cc2)CC1 (stereo not shown)
> 6.00

Specify pIC50 for CCCc1cccc(C(C(=O)NO)c2ccccc2)c1 (stereo not shown) and stop.
> 6.00

Assign pIC50 to the following record: O=C(NO)C(c1ccccc1)c1cccc(NCc2ccccc2)c1 (stereo not shown)
4.82 to 6.00

Complete the entry with pIC50 for CSc1cccc(C(C(=O)NO)c2ccc(N3CCOCC3)cc2)c1 (stereo not shown)
> 6.00

For the compound O=C(NO)C(c1ccccc1)N1CCC(c2nc(-c3ccc4c(c3)OCO4)no2)CC1 (stereo not shown) , give its measured pIC50 value.
> 6.00

###

Molecular target: one or more of HDAC-4, HDAC-5, HDAC-6, HDAC-7, HDAC-8, HDAC-9, HDAC-10 and HDAC-11
Experiment: Inhibition of histone deacetylase enzymatic activity (summary statement over isoforms)
Conditions: Table 3, selected examples; HDAC isoform not given
Please go through the items and note down their IC50.

Output IC50 of O=C(NO)C(c1ccccc1)N1C[C@@H]2C[C@H]1CO2 (some centres unmarked)
1000 to 15000 nM

Supply recorded IC50 for CCOc1cccc(C(C(=O)NO)c2ccccc2)c1 (centres unmarked) here.
< 1000 nM

Identify measured IC50 corresponding to O=C(NO)C(c1ccc(N2CCOCC2)cc1)c1cccs1 (centres unmarked)
< 1000 nM

Determine its reported IC50: O=C(NO)C(c1ccccc1)c1ccc(N2C[C@@H]3C[C@]3(c3ccc(Cl)c(Cl)c3)C2)cc1 (some centres unmarked)
< 1000 nM

Please report the measured IC50 for CCN(CCOC)c1ccc(C(C(=O)NO)c2ccccc2)cc1 (centres unmarked)
< 1000 nM

Supply recorded IC50 for O=C(NO)C(c1ccccc1)c1nnc(-c2ccc3ccccc3c2)s1 (centres unmarked) here.
1000 to 15000 nM

Give me measured IC50, please, for this compound: O=C(NO)C(c1ccccc1)N1CCN(C(=O)c2ccco2)CC1 (centres unmarked)
1000 to 15000 nM

Return value of IC50 for input O=C(NO)C(c1ccccc1)c1ccc(NCc2ccccc2)cc1 (centres unmarked) , no commentary.
< 1000 nM

Quickly give me recorded IC50 for O=C(NO)C(c1ccccc1)c1ccc(OCC(=O)N2CCOCC2)cc1 (centres unmarked)
< 1000 nM

Give the value of IC50 reported for the following: O=C(NO)C(c1ccccc1)c1cccc(OCCCc2ccccc2)c1 (centres unmarked)
< 1000 nM

Determine from records and report IC50 for O=C(Nc1ccc(C(C(=O)NO)c2ccccc2)cc1)c1ccc2c(c1)OCO2 (centres unmarked)
< 1000 nM

Report measured IC50; entry is O=C(NO)C(c1ccccc1)N1CCC(c2c[nH]c3ccccc23)CC1 (centres unmarked)
< 1000 nM

Return IC50 (reported value) for this compound: O=C(NO)C(c1ccccc1)c1ccc(C#CCN2CCS(=O)(=O)CC2)cc1 (centres unmarked)
< 1000 nM

Report measured IC50; entry is O=C(NO)C(Oc1ccccc1)c1ccccc1 (centres unmarked) [Compound 1-2, N-hydroxy-2-phenoxy-2-phenylacetamide]
< 1000 nM

Given COc1ccccc1COc1ccc(C(C(=O)NO)c2ccccc2)cc1 (centres unmarked) , respond with its IC50.
< 1000 nM

Return value of IC50 for input Cc1ccsc1C(=O)Nc1ccc(C(C(=O)NO)c2ccccc2)cc1 (centres unmarked) , no commentary.
< 1000 nM

Using the record for O=C(NO)C(c1ccccc1)c1ccc(C#Cc2cccnc2)cc1 (centres unmarked) , state its measured IC50.
< 1000 nM

Specify IC50 for O=C(Nc1cccc(C(C(=O)NO)c2ccccc2)c1)c1ccnc(Cl)c1 (centres unmarked) and stop.
1000 to 15000 nM

Supply measured IC50 of CC(C(=O)NO)(c1ccccc1)c1ccccc1 [Compound 1-14, N-hydroxy-2,2-diphenylpropanamide] in your reply.
< 1000 nM

// Input: O=C(NO)C(c1ccccc1)c1ccc(N2C[C@@H]3C[C@H]2CO3)cc1 (some centres unmarked) . Output its IC50 only.
< 1000 nM

Using the record for O=C(NO)C(c1ccccc1)n1cccc1 (centres unmarked) , state its measured IC50.
1000 to 15000 nM

Using known records, supply IC50 for O=C(NO)C(c1ccccc1)c1ccc(N2CCN(Cc3ccc4c(c3)OCO4)CC2)cc1 (centres unmarked)
< 1000 nM

Tell me IC50 reported for O=C(NO)C(c1ccccc1)n1ccc(-c2ccccc2)c1 (centres unmarked)
< 1000 nM

Supply measured IC50 of O=C(NO)C(c1ccccc1)c1ccc(N2CCN(C(=O)OCc3ccccc3)CC2)cc1 (centres unmarked) in your reply.
< 1000 nM

Kindly indicate its recorded IC50. Item: O=C(Nc1cccc(C(C(=O)NO)c2ccccc2)c1)c1ccc2c(c1)OCO2 (centres unmarked)
< 1000 nM

Identify measured IC50 associated with O=C(NO)C(Sc1cccc(O)c1)c1ccccc1 (centres unmarked)
1000 to 15000 nM

Tell me its IC50 given O=C(NO)C(c1ccccc1)c1ccc(-n2ccnc2)cc1 (centres unmarked) as the entry.
< 1000 nM

Specify IC50 for O=C(NO)C(c1ccccc1)c1cccc(NCc2ccccn2)c1 (centres unmarked) and stop.
< 1000 nM

Output measured IC50 for this item: COc1ccc(C(=O)Nc2cccc(C(C(=O)NO)c3ccccc3)c2)cc1 (centres unmarked)
< 1000 nM

Indicate the recorded IC50 value for this compound: CN(C)CCCOc1ccc(C(C(=O)NO)c2ccccc2)cc1 (centres unmarked)
< 1000 nM

Return IC50 for the following compound: O=C(NO)C(c1ccccc1)c1ccc(OCc2ccc(F)cc2F)cc1 (centres unmarked)
< 1000 nM

Give the measured IC50 for O=C(NO)C(c1ccccc1)c1nnc(C2c3ccccc3Oc3ccccc32)s1 (centres unmarked)
< 1000 nM

Please report IC50 for the following compound: O=C(NO)C(c1ccccc1)c1ccc(N2CCCCC2=O)cc1 (centres unmarked)
< 1000 nM

Look up IC50 of O=C(NO)C(c1ccccc1)c1nnc(COc2ccccc2)s1 (centres unmarked) and report it.
< 1000 nM

Please give measured IC50 of the following entry: O=C(NO)C(c1ccccc1)c1ccc(NS(=O)(=O)c2ccccc2)cc1 (centres unmarked)
< 1000 nM
